# ASSAYED_TARGET: MAGE-A1 target antigen peptide … presented by HLA-A*02:01 on cells (human)
# PROTOCOL_DETAILS: cell-based or functional assay
METRIC_NAME: EC50 Value (M), JKR9 reporter activation by peptide-loaded T2 cells
Numbers only, in M.

ht27M1365 (TCR, V domains shown) Valpha: GEDVEQSLFLSVREGDSSVINCTYTDSSSTYLYWYKQEPGAGLQLLTYIFSFTYMKQDQRLTVLLNKKDKHLSLRIADTQTGDSAIYFCAGSGGGTDKLIFGTGTRLQVFP Vbeta: GAVVSQHPSWVICKSGTSVKIECRSLDFQATTMFWYRQFPKQSLMLMATSNEGSKATYEQGVEKDKFLINHASLTLSTLTVTSAHPEDSSFYICSAREPGQGPYEQYFGPGTRLTVT : 1.01e-07
ht27M1011 (TCR, V domains shown) Valpha: GEDVEQSLFLSVREGDSSVINCTYTDSSSTYLYWYKQEPGAGLQLLTYIFSNMDMKQDQRLTVLLNKKDKHLSLRIADTQTGDSAIYFCAGSGGGTDKLIFGTGTRLQVFP Vbeta: GAVVSQHPSWVICKSGTSVKIECRSLDFQATTMFWYRQFPKQSLMLMATSDYQTCVTYEQGVEKDKFLINHASLTLSTLTVTSAHPEDSSFYICSAREPGQGPWEQYFGPGTRLTVT : 8.24e-09

State recorded EC50 Value (M), JKR9 reporter activation by peptide-loaded T2 cells for all listed binders.
1. ht27M1010 (TCR, V domains shown) Valpha: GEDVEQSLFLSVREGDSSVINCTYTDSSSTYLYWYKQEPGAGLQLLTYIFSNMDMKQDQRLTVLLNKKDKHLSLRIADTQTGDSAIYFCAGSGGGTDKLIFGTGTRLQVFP Vbeta: GAVVSQHPSWVICKSGTSVKIECRSLDFQATTMFWYRQFPKQSLMLMATSDYQTCVTYEQGVEKDKFLINHASLTLSTLTVTSAHPEDSSFYICSAREPGQGPLEQYFGPGTRLTVT
2. ht27M1398 (TCR, V domains shown) Valpha: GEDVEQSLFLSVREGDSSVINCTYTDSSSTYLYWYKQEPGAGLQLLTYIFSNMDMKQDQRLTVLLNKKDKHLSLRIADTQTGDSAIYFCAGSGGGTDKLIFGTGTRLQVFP Vbeta: GAVVSQHPSWVICKSGTSVKIECRSLDFQATTMFWYRQFPKQSLMLMATTNLPSKATYEQGVEKDKFLINHASLTLSTLTVTSAHPEDSSFYICSAREPGQGPYEQYFGPGTRLTVT
3. ht27M1001 (TCR, V domains shown) Valpha: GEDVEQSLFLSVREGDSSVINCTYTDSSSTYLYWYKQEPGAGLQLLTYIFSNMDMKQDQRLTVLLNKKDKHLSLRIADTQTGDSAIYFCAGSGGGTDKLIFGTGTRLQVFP Vbeta: GAVVSQHPSWVICKSGTSVKIECRSLDFQATTMFWYRQFPKQSLMLMATSDYQTCVTYEQGVEKDKFLINHASLTLSTLTVTSAHPEDSSFYICSAREPGQGPYEQYFGPGTRLTVT
4. ht27M1436 (TCR, V domains shown) Valpha: GEDVEQSLFLSVREGDSSVINCTYTDSSSTYLYWYKQEPGAGLQLLTYTFWFMDMKQDQRLTVLLNKKDKHLSLRIADTQTGDSAIYFCAGSGGGTDKLIFGTGTRLQVFP Vbeta: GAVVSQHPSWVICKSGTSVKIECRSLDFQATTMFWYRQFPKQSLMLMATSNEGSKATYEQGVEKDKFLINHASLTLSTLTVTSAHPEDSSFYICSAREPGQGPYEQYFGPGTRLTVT
5. ht27M1003 (TCR, V domains shown) Valpha: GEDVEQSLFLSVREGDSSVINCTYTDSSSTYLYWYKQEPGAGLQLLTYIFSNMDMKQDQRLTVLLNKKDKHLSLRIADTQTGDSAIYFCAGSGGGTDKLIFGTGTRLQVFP Vbeta: GAVVSQHPSWVICKSGTSVKIECRSLDFQATTMFWYRQFPKQSLMLMATSNEGSKATYEQGVEKDKFLINHASLTLSTLTVTSAHPEDSSFYICSAREPGSGPYEQYFGPGTRLTVT
6. ht27M1002 (TCR, V domains shown) Valpha: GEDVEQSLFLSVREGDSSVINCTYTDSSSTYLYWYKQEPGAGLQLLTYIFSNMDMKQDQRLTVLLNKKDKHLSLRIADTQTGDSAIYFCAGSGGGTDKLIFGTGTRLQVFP Vbeta: GAVVSQHPSWVICKSGTSVKIECRSLDFQATTMFWYRQFPKQSLMLMATSNEGSKATYEQGVEKDKFLINHASLTLSTLTVTSAHPEDSSFYICSAREPGGGPYEQYFGPGTRLTVT
7. ht27M1005 (TCR, V domains shown) Valpha: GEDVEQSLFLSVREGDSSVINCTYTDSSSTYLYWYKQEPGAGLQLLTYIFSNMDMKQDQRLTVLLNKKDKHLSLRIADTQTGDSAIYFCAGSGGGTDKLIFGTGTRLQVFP Vbeta: GAVVSQHPSWVICKSGTSVKIECRSLDFQATTMFWYRQFPKQSLMLMATSNEGSKATYEQGVEKDKFLINHASLTLSTLTVTSAHPEDSSFYICSAREPGQGPLEQYFGPGTRLTVT

Out:
1. 2.03e-08
2. 5.28e-08
3. 4.28e-08
4. 2.02e-07
5. 1.17e-06
6. 1.36e-06
7. 1.55e-06

In: Report EC50 Value (M), JKR9 reporter activation by peptide-loaded T2 cells for ht27M1363 (TCR, V domains shown) Valpha: GEDVEQSLFLSVREGDSSVINCTYTDSSSTYLYWYKQEPGAGLQLLTYIFNTQDMKQDQRLTVLLNKKDKHLSLRIADTQTGDSAIYFCAGSGGGTDKLIFGTGTRLQVFP Vbeta: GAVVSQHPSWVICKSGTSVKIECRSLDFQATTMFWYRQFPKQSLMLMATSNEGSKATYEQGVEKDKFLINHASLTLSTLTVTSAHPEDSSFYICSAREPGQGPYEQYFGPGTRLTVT please.
Out: 6.4e-08

Where do these numbers come from? They come from patent EP4534554A1.
